system: HOP-62; assay: NCI tumour cell line growth inhibition, 48 h
The source made the active and inactive calls. Rule as the data show it: active = GI50 up to about 1.1 µM and inactive = higher.

# MOLECULE, GI50
data = [
    ("CCOC(=O)c1cc2c(C(=O)c3ccc([N+](=O)[O-])cc3)c(C(C)=O)ccc2[nH]1", "4.43 µM (inactive)"),
    ("Cc1ccc2c(c1)C(=O)C(Cc1ccccc1C(=O)O)C2 (stereo not given)", "> 100 µM (inactive)"),
    ("C[Si](C)(c1ccc(C(=O)O)cc1)c1ccc(C(=O)O)cc1", "> 100 µM (inactive)"),
    ("CC1(C)OC2C(COC(c3ccccc3)(c3ccccc3)c3ccccc3)OC(c3c[nH]c4c(N)ncnc34)C2O1 (stereo not given)", "4.86 µM (inactive)"),
    ("N/C(=N\\c1ccc(Cl)cc1)NS(=O)(=O)c1cccc2nsnc12", "94.2 µM (inactive)"),
    ("Cc1cc(N(CCC#N)CCC#N)ccc1/C=C1N=C(/C=C\\c2ccccc2)N(c2ccc(Cl)cc2)C\\1=O", "5.21 µM (inactive)"),
    ("c1ccc(CN2CCC(=NN3CCCCC3)CC2)cc1", "> 100 µM (inactive)"),
    ("Nc1nc(NCc2ccccc2)cc(NCc2ccccc2)n1", "12.8 µM (inactive)"),
    ("O=C1c2ccncc2C(=O)c2c(O)ccc(O)c21", "32.2 µM (inactive)"),
    ("N#CC(C#N)=C1CCC2C(=C(C#N)C#N)CCC12 (stereo not given)", "> 100 µM (inactive)"),
]

* * *

test system: HT-29; assay: NCI tumour cell line growth inhibition, 48 h
Active and inactive are the calls of the source. Cut-off read from the data, not from the text of the source: active = GI50 up to about 1.1 µM and inactive = higher.

# COMPOUND, GI50
records = [
    ("COc1oc(C2C/C(=C/C(C)=C/C(C)=C/C(C)=C/c3ccc([N+](=O)[O-])cc3)CO2)c(C)c(=O)c1C (stereo not given)", "3.14 µM (inactive)"),
    ("CCOC(=O)c1ccc(/N=C\\c2ccc(N(CCC#N)CCC#N)cc2)cc1", "> 100 µM (inactive)"),
    ("N#CCCN(CCC#N)c1ccc(/C=C2\\N=C(c3ccccc3)N(c3ccc(C(=O)O)cc3)C2=O)cc1", "95.1 µM (inactive)"),
    ("COc1cc([C@@H]2c3cc4c(cc3[C@@H](OC3OC5CO[C@@H](c6cccs6)OC5C(O)C3O)[C@H]3COC(=O)[C@H]23)OCO4)cc(OC)c1O (stereo not given in full)", "1.61 µM (inactive)"),
    ("COc1cc2cc3c4c(cc(OC)c(OC)c4c2cc1OC)CCN3C(=O)OCCN1CCNCC1", "12.6 µM (inactive)"),
    ("C/C(C[n+]1ccccc1)=N\\N=C(N)N", "> 100 µM (inactive)"),
    ("COc1ccc(Nc2cnc3cc(N)ccc3n2)cc1OC", "> 100 µM (inactive)"),
    ("OCC(S)CS.[Bi] (stereo not given)", "19 µM (inactive)"),
    ("Brc1c2c(c(Br)c3nsnc13)N=S=N2", "34.4 µM (inactive)"),
    ("O=c1c2cc([N+](=O)[O-])ccc2n(Cc2ccccc2)n1Cc1ccccc1", "15.9 µM (inactive)"),
]

* * *

Measured GI50 by item
system: PC-3; test: NCI tumour cell line growth inhibition, 48 h
Calls of active or inactive are those of the source. No stated cut-off is given here; in the data, active = GI50 up to about 1.1 µM and inactive = higher.

# COMPOUND, TESTED_TARGET, GI50
measured = [
    ("CSc1nc2ccccc2c(=O)n1/N=C1\\C(=O)N(CN2CCCCC2)c2ccc(Cl)cc21", "PC-3", "29.4 µM (inactive)"),
    ("C1CCN(CCC2CCCCN2)CC1 (centres undefined)", "PC-3", "> 100 µM (inactive)"),
    ("Nc1ccc2nc(-c3ccccn3)c(-c3ccccn3)nc2c1", "PC-3", "> 100 µM (inactive)"),
    ("CCCCCC(C)C[C@H]1CO[C@H](c2ccc[nH]2)N[C@H]1C(=O)OC (some centres undefined)", "PC-3", "> 100 µM (inactive)"),
    ("O=C(Cc1cc(=O)oc2cc(O)ccc12)N/N=C/c1ccc(N(CCCl)CCCl)cc1", "PC-3", "17.9 µM (inactive)"),
    ("CC1CCC2C(C)(C)CC3(C)CCC1C23O (centres undefined)", "PC-3", "13 µM (inactive)"),
    ("O=S(=O)(c1ccc(Cl)cc1)c1ccccc1C1=NCCN1", "PC-3", "> 100 µM (inactive)"),
    ("Cc1ccc(N/N=C2\\C3=C(CCC(C)(C)O3)C(=O)c3ccccc32)cc1", "PC-3", "37.6 µM (inactive)"),
    ("COc1ccc2[nH]c3c(c2c1)CC(=O)N1CCCC(CC3O)C1 (centres undefined)", "PC-3", "> 100 µM (inactive)"),
    ("CC(=O)OCC(=O)[C@@]1(O)CC[C@H]2[C@@H]3CCC4=CC(=O)C=C[C@]4(C)[C@@]3(F)[C@@H](O)C[C@@]21C [ISOFLUPREDONE ACETATE]", "PC-3", "65.3 µM (inactive)"),
    ("C#CCCCOc1ncccn1", "PC-3", "> 100 µM (inactive)"),
    ("CC1(C)OC2C(COC(c3ccccc3)(c3ccccc3)c3ccccc3)OC(c3c[nH]c4c(N)ncnc34)C2O1 (centres undefined)", "PC-3", "1.86 µM (inactive)"),
    ("CC(NNC(=O)c1ccncc1)c1cccc(C(F)(F)F)c1 (centres undefined)", "PC-3", "> 100 µM (inactive)"),
    ("Nc1cccc2cc(S(=O)(=O)Nc3ccc(C(=O)O)cc3)ccc12", "PC-3", "> 100 µM (inactive)"),
]

* * *

system: OVCAR-8; experiment: NCI tumour cell line growth inhibition, 48 h
The source made the active and inactive calls. Cut-off read from the data, not from the text of the source: active = GI50 up to about 1.1 µM and inactive = higher.
Measured GI50 by item

# MOLECULE, GI50
data = [
    ("O=C1/C(=N\\n2c(S)nnc2-c2ccncc2)c2cc(Cl)ccc2N1CN1CCCCC1", "31.8 µM (inactive)"),
    ("O=C1N/C(=N/N=C\\C(O)C(O)C(O)C(O)CO)N/C1=C/c1ccc(Cl)cc1 (stereo unspecified)", "> 100 µM (inactive)"),
    ("CC1CCC2C(C)(C)CC3(C)CCC1C23O (stereo unspecified)", "17.2 µM (inactive)"),
    ("CNC(=O)OCC1=C(COC(=O)NC)C(C)N(c2ccc(OC)cc2)C1 (stereo unspecified)", "80.4 µM (inactive)"),
    ("CCc1ccccc1-n1c2nc(=O)n(C)c(=O)c-2nc2ccccc21", "5.96 µM (inactive)"),
    ("Cc1nc(C(N)=S)sc1C(=O)/C=C/c1c(O)ccc2ccccc12", "68.5 µM (inactive)"),
]

* * *

Measured GI50 by item
test system: SF-295; assay: NCI tumour cell line growth inhibition, 48 h
The source made the active and inactive calls. Cut-off read from the data, not from the text of the source: active = GI50 up to about 1.1 µM and inactive = higher.

# MOLECULE, TESTED_TARGET, GI50
data = [
    ("O=C1NC(=O)C(c2c[nH]c3cc(Br)ccc23)=C1c1cnc[nH]1", "SF-295", "16.3 µM (inactive)"),
    ("Cc1cc2c(cc1Cl)SSc1cc(Cl)c(C)cc1S(=O)(=O)Nc1nc(N)nn1C(O)n1nc(N)nc1NS2(=O)=O", "SF-295", "> 10 µM (inactive)"),
    ("CCCN(CCCCC(NC(C)=O)C(=O)NCc1ccccc1)C(=O)NCCCl (stereo not given)", "SF-295", "> 100 µM (inactive)"),
    ("CCOC(=O)c1c(Cl)nc2ccccc2c1N=[N+]=[N-]", "SF-295", "23.9 µM (inactive)"),
    ("C1CCCCc2nc3c(nc2CCC1)c1nc2c(nc1c1nc4c(nc31)CCCCCCCC4)CCCCCCCC2", "SF-295", "> 100 µM (inactive)"),
    ("O=c1[nH]c2ccc(CC(=S)N3CCOCC3)cc2o1", "SF-295", "> 100 µM (inactive)"),
    ("COc1cc(/C=C/C=C2\\CCC/C(=C\\C=C\\c3ccc(O)c(OC)c3)C2=O)ccc1O", "SF-295", "4.74 µM (inactive)"),
    ("O=C(Nc1ccccn1)c1cc2c(cc1Cl)Sc1nccn1S2(=O)=O", "SF-295", "36.6 µM (inactive)"),
    ("COC(=O)Oc1nn(C(=O)OC)c(=O)c2ccccc12", "SF-295", "> 100 µM (inactive)"),
    ("Cc1cc(C)nc(NC(=O)c2ccc(Br)s2)c1", "SF-295", "20.5 µM (inactive)"),
]

* * *

system: SK-OV-3; test: NCI tumour cell line growth inhibition, 48 h
Active and inactive are the calls of the source. No stated cut-off is given here; in the data, active = GI50 up to about 1.1 µM and inactive = higher.

# COMPOUND, TESTED_TARGET, GI50
measured = [
    ("Cn1c(=O)nc2n(-c3cccc(Cl)c3)c3ccccc3nc-2c1=O", "SK-OV-3", "78.9 µM (inactive)"),
    ("NC(Cc1ccccc1)C(=O)OCN1C(=O)C2C3C=CC(C2C1=O)C1C2C(=O)N(COC(=O)C(N)Cc4ccccc4)C(=O)C2C31 (stereo unspecified)", "SK-OV-3", "50.2 µM (inactive)"),
    ("CC1=C(C(=O)N(C)c2ccc(Cl)c(C(=O)OC(C)C)c2)SCCO1", "SK-OV-3", "> 100 µM (inactive)"),
    ("Nc1nc(NCc2ccccc2)cc(NCc2ccccc2)n1", "SK-OV-3", "9.08 µM (inactive)"),
    ("Clc1cccc(Cl)c1C(Nc1nncs1)Nc1nncs1", "SK-OV-3", "32 µM (inactive)"),
    ("S=C(NCc1ccccc1)N/N=C/c1ccccn1", "SK-OV-3", "3.94 µM (inactive)"),
]
